Assay: NCI Yeast Anticancer Drug Screen. Data for the sgs1 mgt1 strain (AID 161);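 further: 0% = growth of cultures given vehicle only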
Details: S. cerevisiae sgs1 mgt1 strain, at 50.0 µM, stronger effect = higher value
The panel holds about 79,000 compounds, 15% with a hit somewhere; the sample as a whole holds those more often. The source made the active and inactive calls. No stated cut-off is given here; in the data, active means growth inhibition above about 70%; inactive means the rest.
Value Type: growth inhibition

Molecule | Measured Result
O=C(OCCO)C1CC2CC1C1(C2)OCCO1 (configuration not stated) | 13.9% (inactive)
Cc1cc(Br)cc(C)c1NC(=O)C(=O)C(C(=O)c1ccncc1)C1OC(=O)c2ccccc21 (configuration not stated) | -51.9% (inactive)
COc1ccc(N=C2SC(=N/N=c3\sc4ccccc4n3C)SC2=Nc2ccc(OC)cc2)cc1 | -2.9% (inactive)
CSC(=NC(=O)c1c(Cl)cccc1Cl)SC | 40.2% (inactive)
CC(=O)Nc1c(F)cc(F)cc1[N+](=O)[O-] | -12.4% (inactive)
Nc1ncnc2c1nnn2CC(O)CO (configuration not stated) | -17.4% (inactive)
C=CCNC(=S)Nc1ccccc1OCC | -5.05% (inactive)
Cc1cc2c(=O)c3ccccc3[nH]c2c(C(=O)O)c1C | 8.25% (inactive)
CN=C/C(C(C)=O)=C(\C)O | -4.85% (inactive)
O=C(OCCOCBr)c1ccccc1 | 19.9% (inactive)
CN1C(=O)/C(=C2\SC(=O)N(CN3CCCCC3)C2=O)c2cc(Br)ccc21 | -11.2% (inactive)
CCCOC(=O)C(O)c1ccc(C)cc1 (configuration not stated) | 12.9% (inactive)
CCOC(=O)n1oc2ccc(Br)cc2c1=O | 76.2% (active)
O=C(O)c1cc2ccc(Cl)cc2c2cc(C(F)(F)F)ccc12 | 27.2% (inactive)
Cc1ccc2nc(C)cc(N=[N+]=[N-])c2c1 | -17.1% (inactive)
O=C(c1ccccc1)C(c1ccccc1)(c1ccccc1)c1ccccc1 | -17.3% (inactive)
Cc1ccc(OCc2ccccc2)n[n+]1[O-] | -10.8% (inactive)
S=C(Nc1ccc(N=Nc2ccccc2)cc1)SCc1ccc(Cl)cc1 | 20.6% (inactive)
CCN(CC)c1ccc(/C=C\c2c(C)cnc3ccccc23)cc1 | 17.9% (inactive)
COc1ccc(COC(=O)Nc2cccc(Cl)c2C)cc1 | 14.8% (inactive)
O=COCCCc1ccccc1 | 11.8% (inactive)
O=C(NC(=O)c1ccc(F)c(Cl)c1)NC1CC1 | 12% (inactive)
CCC/C(=N/NC(N)=O)c1ccco1 | -8.15% (inactive)
CCCC(=O)Nc1ccccc1OC | 9.2% (inactive)
NCCc1c(-c2cccnc2)[nH]c2ccccc12 | -2.75% (inactive)
O=c1c2ncccc2cc2n1CCc1c-2[nH]c2ccccc12 | 6.3% (inactive)
NCC1CCCCO1 (configuration not stated) | 14.2% (inactive)

====

Test: NCI Yeast Anticancer Drug Screen. Data for the bub3 strain (AID 167)
Details: S. cerevisiae bub3 mutant strain, at 50.0 µM, stronger effect = higher value
About 79,000 compounds went through this panel and 15% of them were active in at least one assay; those are over-represented in the sample as a whole.
Collected growth inhibition values appear next to each entry.
Value Type: growth inhibition (%)

Molecule | Units Label | Measured Result
C=CCOc1c(C)cc(C)cc1C | % | -14.8
O=C(NC1CCCN1C(=O)/C=C\c1ccccc1)OCc1ccccc1 (configuration not stated) | % | 0.6
COc1cc(C)n2nnnc2n1 | % | 1.3
CN(C)/C=N/NC(=O)c1ccccc1N | % | 2.15
COc1ccc(C(O)C(=O)c2nc3ccc([N+](=O)[O-])cc3[nH]c2=O)cc1 (configuration not stated) | % | -36.5
O=C(NCCO)c1ccc(Cl)cc1 | % | -32.4
CCc1ccc2[nH]c(C(=O)O)cc2c1 | % | -21.6
COC(=O)c1ccc(N=Nc2ncc(CC(NC(C)=O)C(=O)OC)[nH]2)cc1 (configuration not stated) | % | 4.2
CCOC(=O)C[C@@]1(C)C(=O)O[C@H](c2ccccc2)N1C(=O)c1ccccc1 | % | 11.8
COC(=O)C1CCC(=O)N1C(c1ccc(OC)cc1)c1ccc(OC)cc1 (configuration not stated) | % | 8.3
Cn1c(C(N)=O)cc(=O)n1-c1ccc([N+](=O)[O-])cc1 | % | -6
COc1cc(C2c3cc4c(cc3C(OC(=O)C[n+]3ccccc3)C3COC(=O)C23)OCO4)cc(OC)c1OC (configuration not stated) | % | 18.8

====

Assay: NCI Yeast Anticancer Drug Screen. Data for the cln2 rad14 strain (AID 165);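 further: 0% = growth equal to vehicle treated cultures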
Conditions: S. cerevisiae cln2 rad14 strain, at 50.0 µM
This is part of a sample that, as a whole, favours compounds with a hit. Of some 79,000 tested, about 15% had one in any assay. Active and inactive are the calls of the source. No stated cut-off is given here; in the data, active means growth inhibition above about 70%; inactive means the rest.
Labels: Yes = active, No = inactive

Compound | Classification
COc1ccc(C(=Cc2cc(OC(C)=O)c3ccccc3c2OC(C)=O)c2ccc(OC)cc2)cc1 | No
CCc1nc2c(N)ncnc2o1 | No
CC(=O)NC1CCC(Cc2ccccc2)CC1 (centres undefined) | No
C/C(=N\Sc1cccc([N+](=O)[O-])c1)c1ccccc1O | Yes
Cc1nc2cc(Cl)ccc2s1 | No
COc1ccc(N=C(C)c2c(O)n(-c3ccccc3)[nH]c2=O)cc1 | Yes
C[S+]1CC2C3CC(C#N)C(C3)C2C1 (centres undefined) | No
COc1cc2c(cc1Cc1cc(OC)c(OC)c(OC)c1)OCO2 | No
CCOC(=O)COc1c(C)cccc1C | No
O=c1[nH]nnc2cc(Cl)ccc12 | No
O=C(Nc1ccc(CSc2ccc(Cl)cc2)o1)N1CCOCC1 | No
OCCS | No
Cc1ccc(OCc2ccccc2)n[n+]1[O-] | No
CSCNC(=S)Nc1ccc(Cl)c(Cl)c1 | No

====

Test: NCI Yeast Anticancer Drug Screen. Data for the mlh1 rad18 strain (AID 175)
Conditions: S. cerevisiae mlh1 rad18 strain growth inhibition; at 50.0 µM; stronger effect = higher value
About 79,000 compounds went through this panel and 15% of them were active in at least one assay; those are over-represented in the sample as a whole.

Molecule | growth inhibition [%]
COc1ccc(-c2cc(-c3ccccc3)n(C3OC(COC(C)=O)C(OC(C)=O)C(OC(C)=O)C3OC(C)=O)c(=S)c2C#N)cc1 (stereo not given) | -5.2
Nc1c2ccccc2nc2ccc3c(=O)cc(-c4ccccc4)oc3c12 | -73
CC(=O)SCC(C)CCl (stereo not given) | -25.4
CCN(CC)CCOC(=O)c1ccc(NC(=O)OCCC(C)OC(=O)Nc2ccc(C(=O)OCCN(CC)CC)cc2)cc1 (stereo not given) | 11.9
COC(=O)c1c2c(C)ccc(C)c2nc2c(C)ccc(C)c12 | -41
CCCCCCC(=O)/C=C/c1cccc(OCc2ccccc2)c1 | 13.7
Cc1cc(Cl)ccc1NC(=O)Nc1c(Oc2ccc(Cl)cc2)ccc(Cl)c1S(=O)(=O)O | 45.9
COC1OC(CO)C(O)C(OC(C)=O)C1NC(=O)N(CCCl)N=O (stereo not given) | -8.75
N#C/C(=C/c1cccnc1)C(=O)c1ccccc1 | 7.15
[N-]=[N+]=Nc1ccccc1-c1ccccc1[N+](=O)[O-] | 28.6

====

Assay: NCI Yeast Anticancer Drug Screen. Data for the mlh1 rad18 strain (AID 175)
Details: S. cerevisiae mlh1 rad18 strain growth inhibition; at 50.0 µM
About 79,000 compounds went through this panel and 15% of them were active in at least one assay; those are over-represented in the sample as a whole. Calls of active or inactive are those of the source. No stated cut-off is given here; in the data, active means growth inhibition above about 70%; inactive means the rest.
Outcome codes: YES = active, NO = inactive

Molecule | Classification
COc1cc2c(-c3cc(OC)c(OC)c(OC)c3)cc(C)[n+](C)c2cc1OC | NO
CC(=O)c1ccc(N=NN(C)C)cc1 | NO
Cc1cc2nc(C(C)(C)O)[nH]c2cc1C | NO
CC(C)C(NC(=O)c1ccccc1C(=O)O)c1ccccc1 (stereo not given) | NO
O=C1CC(NC(=O)C(F)(F)F)c2c1csc2Br (stereo not given) | NO
C/C=C/C1OC(OC)(OC)C1(OC)OC (stereo not given) | NO
CCCC(CCC)(C(=O)O)C(=O)O | NO
COC(=O)C(C)c1cc2ccccc2[nH]1 (stereo not given) | NO
CCCCCCCCOC(=O)CO | NO
CCOC(=O)Nc1nc2ccccc2n1CN1CCOCC1 | NO
Nc1c(Cl)ncnc1Cl | NO
O=[N+]([O-])c1ccc(N/N=C/C2CCCCCC2)c([N+](=O)[O-])c1 | NO
CC(=O)Nc1ccc(NC(=O)c2ccccc2Cl)cc1 | NO
CCN(CC)C(=O)c1cc2c(cc1[N+](=O)[O-])OCO2 | NO
Nc1nc(=S)c2[nH]cnc2[nH]1 | NO
OC(Cc1ccc2ccccc2n1)(C(F)(F)Cl)C(F)(F)Cl | NO
CCc1ccc2c(c1)C(C)(CC)CCC2C (stereo not given) | NO
CN(C)CCC(=O)c1cccnc1 | NO
O=C(NCc1ccccc1)NC(c1ccccc1)(c1ccccc1)c1ccccc1 | NO
CCSCN1CCN(CSCC)CC1 | NO
COC(=O)c1nc(N)nc(C(=O)OC)c1C(=O)c1ccc(F)cc1 | NO
COc1ccc(CCn2cnn3c(=O)c4ccccc4nc3c2=O)cc1OC | NO
CCOC(=O)CCC(NC(=O)C(CCC(=O)OCC)NC(=O)C(Cc1ccc([N+](=O)[O-])cc1)NC(C)=O)C(=O)NNC(=O)OC(C)(C)C (stereo not given) | NO
CC1=CC(=O)c2ccc3c4ccccc4n(C)c3c2C1=O | NO
COc1cc(C=O)cc([N+](=O)[O-])c1O | NO
[N-]=[N+]=NC1CC(n2ccc(=O)[nH]c2=O)OC1CO (stereo not given) | NO
Cc1c(C)c(C)c(CC2(C)CSC2)c(CC2(C)CSC2)c1C | NO
CC(C)CCc1ccc2ccc3cccc4ccc1c2c34 | NO
Cc1ccc(Cl)cc1NC(=O)C(Br)C(Br)c1ccccc1 (stereo not given) | NO
COc1ccccc1NC(N)=S | NO
O=C(O)c1cc(-c2cccs2)c(C(=O)O)s1 | NO
Cc1ccc(N=Nc2c(C)nn(-c3ccccc3)c2C)c(Br)c1 | NO
CCN(CC)Cc1cc2[nH]c3c4ccc(Cl)cc4ncc3c2cc1OC | NO
COc1ccc(Cl)cc1NC(=O)c1ccccc1C(=O)O | NO
CN(C)c1ccc(/C=C(\C#N)c2ccccc2Br)cc1 | NO
COc1ccc(C2=C/C(=C/c3cccc(OC)c3OC)C(=O)O2)cc1 | NO
Cc1cc2c3c(c1)CCCN3CCC2 | NO
Clc1cc(OC2C3CC4CC(C3)CC2C4)nc(Cl)n1 (stereo not given) | NO
O=C(O)Cc1ccccc1-c1ccccc1 | NO
Cc1c(Cl)cccc1NC(=O)Oc1ccccc1Cc1ccccc1 | NO
CC(C)=CC(Cc1ccccc1)S(=O)(=O)c1nc2ccccc2s1 (stereo not given) | NO
Cc1ccnc(N=C(N)Nc2cc(C)ccn2)c1 | NO
C[C@@]1(Cc2ccccc2)C(=O)N2[C@@H](CO)C(c3ccccc3)O[C@]2(C)c2ccccc21 (stereo not given in full) | NO
O=CN(c1ccccc1)c1ccccc1 | NO
c1ccc([P+](CC[P+](c2ccccc2)(c2ccccc2)c2ccccc2)(c2ccccc2)c2ccccc2)cc1 | NO
O=C(CN1C(=O)c2ccccc2C1=O)OC1C=CCCC1 (stereo not given) | NO
Cc1cc([N+](=O)[O-])ccn1 | NO
O=C(NCCc1c[nH]c2ccccc12)C1CCCCC1 | NO
C1=C(c2ccccc2)OC(c2ccccc2)=C(c2ccccc2)[P+]1(c1ccccc1)c1ccccc1 | YES
O=C(NC1CCCN1C(=O)/C=C\c1ccccc1)OCc1ccccc1 (stereo not given) | NO
